Molecular target: T1, Clostridium difficile toxin A (TcdA) (Clostridium difficile, UniProt P16154 1-2710)
T1 construct: mature; also called full-length TcdA
T1 sequence (P16154 whole entry): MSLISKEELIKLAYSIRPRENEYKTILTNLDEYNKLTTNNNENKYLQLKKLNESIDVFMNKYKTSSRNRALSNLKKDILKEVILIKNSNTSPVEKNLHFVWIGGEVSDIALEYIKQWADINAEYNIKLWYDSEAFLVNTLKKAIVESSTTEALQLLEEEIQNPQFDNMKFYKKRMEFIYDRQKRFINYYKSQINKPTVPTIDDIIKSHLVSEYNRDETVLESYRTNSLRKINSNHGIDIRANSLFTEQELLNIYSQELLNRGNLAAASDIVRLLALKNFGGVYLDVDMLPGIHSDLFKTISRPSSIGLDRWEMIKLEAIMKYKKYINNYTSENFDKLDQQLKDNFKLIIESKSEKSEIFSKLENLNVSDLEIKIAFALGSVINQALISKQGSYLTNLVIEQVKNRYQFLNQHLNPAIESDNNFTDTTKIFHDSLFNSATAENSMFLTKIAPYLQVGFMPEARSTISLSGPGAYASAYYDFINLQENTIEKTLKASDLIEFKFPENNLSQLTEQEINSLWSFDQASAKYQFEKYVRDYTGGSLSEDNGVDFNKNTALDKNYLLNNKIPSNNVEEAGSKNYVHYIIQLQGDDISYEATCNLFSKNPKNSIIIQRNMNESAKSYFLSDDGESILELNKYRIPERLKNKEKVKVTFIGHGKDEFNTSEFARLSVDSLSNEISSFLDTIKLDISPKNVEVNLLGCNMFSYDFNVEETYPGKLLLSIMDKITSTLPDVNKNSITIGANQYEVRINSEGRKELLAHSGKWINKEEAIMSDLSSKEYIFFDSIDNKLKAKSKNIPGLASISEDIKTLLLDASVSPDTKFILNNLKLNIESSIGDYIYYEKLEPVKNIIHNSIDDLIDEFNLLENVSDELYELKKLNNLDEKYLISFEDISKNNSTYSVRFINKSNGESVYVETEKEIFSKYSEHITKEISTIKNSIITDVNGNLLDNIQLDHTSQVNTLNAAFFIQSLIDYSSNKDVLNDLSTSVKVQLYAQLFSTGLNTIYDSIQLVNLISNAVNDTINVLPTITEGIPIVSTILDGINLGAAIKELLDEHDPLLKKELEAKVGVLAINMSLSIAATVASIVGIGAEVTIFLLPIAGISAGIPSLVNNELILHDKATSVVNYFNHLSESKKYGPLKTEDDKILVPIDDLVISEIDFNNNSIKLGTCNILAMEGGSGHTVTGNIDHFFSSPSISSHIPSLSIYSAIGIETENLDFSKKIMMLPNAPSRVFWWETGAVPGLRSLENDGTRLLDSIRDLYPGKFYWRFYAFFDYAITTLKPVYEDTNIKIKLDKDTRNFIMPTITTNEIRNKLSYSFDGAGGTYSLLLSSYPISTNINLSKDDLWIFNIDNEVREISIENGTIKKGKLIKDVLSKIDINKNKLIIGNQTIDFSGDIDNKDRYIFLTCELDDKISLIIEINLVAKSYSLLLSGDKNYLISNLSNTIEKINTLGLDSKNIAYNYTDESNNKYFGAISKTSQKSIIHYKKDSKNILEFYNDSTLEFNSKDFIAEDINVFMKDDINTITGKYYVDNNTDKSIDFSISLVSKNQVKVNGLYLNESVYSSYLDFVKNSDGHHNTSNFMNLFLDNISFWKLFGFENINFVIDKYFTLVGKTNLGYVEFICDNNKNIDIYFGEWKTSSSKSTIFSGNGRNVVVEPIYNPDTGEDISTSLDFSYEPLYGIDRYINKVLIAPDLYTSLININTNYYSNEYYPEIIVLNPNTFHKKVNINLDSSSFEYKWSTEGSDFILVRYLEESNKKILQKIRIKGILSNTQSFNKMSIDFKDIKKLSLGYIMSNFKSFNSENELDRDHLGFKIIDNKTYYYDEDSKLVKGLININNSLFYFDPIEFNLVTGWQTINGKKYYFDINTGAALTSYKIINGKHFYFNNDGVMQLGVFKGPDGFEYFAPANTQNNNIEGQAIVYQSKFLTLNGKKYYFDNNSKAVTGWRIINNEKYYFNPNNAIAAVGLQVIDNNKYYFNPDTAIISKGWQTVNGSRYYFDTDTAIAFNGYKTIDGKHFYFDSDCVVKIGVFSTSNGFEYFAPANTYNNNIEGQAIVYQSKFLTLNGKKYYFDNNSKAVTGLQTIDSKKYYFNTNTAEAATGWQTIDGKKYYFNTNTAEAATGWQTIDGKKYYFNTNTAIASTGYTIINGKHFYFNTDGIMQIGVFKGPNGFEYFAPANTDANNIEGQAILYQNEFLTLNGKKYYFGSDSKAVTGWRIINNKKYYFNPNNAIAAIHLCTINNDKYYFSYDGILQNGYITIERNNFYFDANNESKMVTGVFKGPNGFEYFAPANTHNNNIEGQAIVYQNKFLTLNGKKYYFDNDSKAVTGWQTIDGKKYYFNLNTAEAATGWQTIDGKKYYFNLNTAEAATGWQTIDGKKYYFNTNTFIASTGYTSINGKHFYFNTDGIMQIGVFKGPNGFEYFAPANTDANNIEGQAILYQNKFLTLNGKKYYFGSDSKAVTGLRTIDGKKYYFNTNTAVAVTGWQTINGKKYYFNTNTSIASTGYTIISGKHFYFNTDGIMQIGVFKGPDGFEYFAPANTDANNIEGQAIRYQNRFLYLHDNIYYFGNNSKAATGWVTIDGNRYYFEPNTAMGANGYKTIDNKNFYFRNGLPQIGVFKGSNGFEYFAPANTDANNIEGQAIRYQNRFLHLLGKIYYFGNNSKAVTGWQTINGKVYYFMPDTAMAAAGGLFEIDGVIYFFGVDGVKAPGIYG
Experiment: SPR (Biacore 3000), VHH over immobilized TcdA; ratio of parent KD to mutant KD
Protocol: Before surface plasmon resonance (SPR) binding experiments, IMAC-purified VHHs were subjected to de-salting and further purification by size-exclusion chromatography (SEC). […] Monomeric VHH fractions were collected and analyzed for binding to TcdA using a Biacore 3000 SPR instrument (GE Healthcare). […] Reference-subtracted sensorgrams were analyzed with BIAevaluation software (GE Healthcare) and fit to a 1:1 binding model. […]
MEASUREMENT_TYPE: KD^WT/KD
Answer using only a numeral; do not append any unit.

BINDER	MEASUREMENT_TYPE	ENDPOINT_VALUE
A26.8-T103M (VHH, not shown: small tags and cut ends) VHH: QVKLEESGGGLVQAGGSLRLSCAASERTFSRYPVAWFRQAPGAEREFVAVISSTGTSTYYADSVKGRFTISRDNAKVTVYLQMNNLKREDTAVYFCAVNSQRMRLQDPNEYDYWGQGTQVTVSS	KD^WT/KD	1.4
A26.8 VHH mutant Q106Y (VHH, not shown: small tags and cut ends) VHH: QVKLEESGGGLVQAGGSLRLSCAASERTFSRYPVAWFRQAPGAEREFVAVISSTGTSTYYADSVKGRFTISRDNAKVTVYLQMNNLKREDTAVYFCAVNSQRTRLYDPNEYDYWGQGTQVTVSS	KD^WT/KD	0.008
A26.8 VHH mutant D107R (VHH, not shown: small tags and cut ends) VHH: QVKLEESGGGLVQAGGSLRLSCAASERTFSRYPVAWFRQAPGAEREFVAVISSTGTSTYYADSVKGRFTISRDNAKVTVYLQMNNLKREDTAVYFCAVNSQRTRLQRPNEYDYWGQGTQVTVSS	KD^WT/KD	1
A26.8 VHH mutant T54W (VHH, not shown: small tags and cut ends) VHH: QVKLEESGGGLVQAGGSLRLSCAASERTFSRYPVAWFRQAPGAEREFVAVISSWGTSTYYADSVKGRFTISRDNAKVTVYLQMNNLKREDTAVYFCAVNSQRTRLQDPNEYDYWGQGTQVTVSS	KD^WT/KD	0.5
A26.8-Q101K (VHH, not shown: small tags and cut ends) VHH: QVKLEESGGGLVQAGGSLRLSCAASERTFSRYPVAWFRQAPGAEREFVAVISSTGTSTYYADSVKGRFTISRDNAKVTVYLQMNNLKREDTAVYFCAVNSKRTRLQDPNEYDYWGQGTQVTVSS	KD^WT/KD	2.5
A26.8-T58K (VHH, not shown: small tags and cut ends) VHH: QVKLEESGGGLVQAGGSLRLSCAASERTFSRYPVAWFRQAPGAEREFVAVISSTGTSKYYADSVKGRFTISRDNAKVTVYLQMNNLKREDTAVYFCAVNSQRTRLQDPNEYDYWGQGTQVTVSS	KD^WT/KD	1.4
A26.8-T56R, T103M (VHH, not shown: small tags and cut ends) VHH: QVKLEESGGGLVQAGGSLRLSCAASERTFSRYPVAWFRQAPGAEREFVAVISSTGRSTYYADSVKGRFTISRDNAKVTVYLQMNNLKREDTAVYFCAVNSQRMRLQDPNEYDYWGQGTQVTVSS	KD^WT/KD	3.9

Answer with the recorded KD^WT/KD for the binder listed here: A26.8-N109R (VHH, not shown: small tags and cut ends) VHH: QVKLEESGGGLVQAGGSLRLSCAASERTFSRYPVAWFRQAPGAEREFVAVISSTGTSTYYADSVKGRFTISRDNAKVTVYLQMNNLKREDTAVYFCAVNSQRTRLQDPREYDYWGQGTQVTVSS
1.3
